Tested on: MOLT-16 (T-Lymphoblastic Leukemia);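 note: after 72 h of two-drug dosing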
Test: Bliss excess, mean over the matrix (fraction); higher = more synergy
Property Measured: Bliss excess

[
  {
    "Compound": "C=CCn1c(=O)c2cnc(Nc3ccc(N4CCN(C)CC4)cc3)nc2n1-c1cccc(C(C)(C)O)n1 [AZD1775] + C[C@@H]1COCCN1C2=NC(=NC(=C2)C3(CC3)[S@](=N)(=O)C)C4=C5C=CNC5=NC=C4 [AZD6738] (first compound max 1 µM, partner max 10 µM)",
    "Numeric Readout": 0.0101
  },
  {
    "Compound": "CC1(C)CCC(CN2CCN(c3ccc(C(=O)NS(=O)(=O)c4ccc(NCC5CCOCC5)c([N+](=O)[O-])c4)c(Oc4cnc5[nH]ccc5c4)c3)CC2)=C(c2ccc(Cl)cc2)C1 [Venetoclax] + C[C@@H]1COCCN1C2=NC(=NC(=C2)C3(CC3)[S@](=N)(=O)C)C4=C5C=CNC5=NC=C4 [AZD6738] (first compound max 1 µM, 7x7, partner max 10 µM)",
    "Numeric Readout": -0.0319
  },
  {
    "Compound": "CC1(C)CCC(CN2CCN(c3ccc(C(=O)NS(=O)(=O)c4ccc(NCC5CCOCC5)c([N+](=O)[O-])c4)c(Oc4cnc5[nH]ccc5c4)c3)CC2)=C(c2ccc(Cl)cc2)C1 [Venetoclax] + COc1cc(Nc2ncc3c(n2)-c2ccc(Cl)cc2C(c2c(F)cccc2OC)=NC3)ccc1C(=O)O [Alisertib] (first compound max 1 µM, 7x7, partner max 10 µM)",
    "Numeric Readout": 0.0623
  },
  {
    "Compound": "NC1(C(=O)N[C@@H](CCO)c2ccc(Cl)cc2)CCN(c2ncnc3[nH]ccc23)CC1 [Capivasertib] + COc1nnc2ccc(N3CCC(c4ccc(OCCN5CCN(C)C(=O)[C@H]5C)cc4)CC3)nn12 [AZD5153] (first compound max 10 µM, 7x7, partner max 1 µM)",
    "Numeric Readout": 0.0458
  },
  {
    "Compound": "CC1(C)CCC(CN2CCN(c3ccc(C(=O)NS(=O)(=O)c4ccc(NCC5CCOCC5)c([N+](=O)[O-])c4)c(Oc4cnc5[nH]ccc5c4)c3)CC2)=C(c2ccc(Cl)cc2)C1 [Venetoclax] + C[C@@H](Nc1cc(F)cc(F)c1)c1cc(C(=O)N(C)C)cc2c(=O)cc(N3CCOCC3)oc12 [AZD8186] (first compound max 1 µM, 7x7, partner max 3 µM)",
    "Numeric Readout": 0.0388
  },
  {
    "Compound": "C[C@@H](c1ccc2nccn2c1)n1nnc2ncc(-c3cnn(C)c3)nc21 [Savolitinib] + CC1(C)CCC(CN2CCN(c3ccc(C(=O)NS(=O)(=O)c4ccc(NCC5CCOCC5)c([N+](=O)[O-])c4)c(Oc4cnc5[nH]ccc5c4)c3)CC2)=C(c2ccc(Cl)cc2)C1 [Venetoclax] (first compound max 1 µM, 7x7, partner max 1 µM)",
    "Numeric Readout": -0.0788
  },
  {
    "Compound": "CC1(C)CCC(CN2CCN(c3ccc(C(=O)NS(=O)(=O)c4ccc(NCC5CCOCC5)c([N+](=O)[O-])c4)c(Oc4cnc5[nH]ccc5c4)c3)CC2)=C(c2ccc(Cl)cc2)C1 [Venetoclax] + C=CCn1c(=O)c2cnc(Nc3ccc(N4CCN(C)CC4)cc3)nc2n1-c1cccc(C(C)(C)O)n1 [AZD1775] (first compound max 1 µM, partner max 1 µM)",
    "Numeric Readout": 0.143
  },
  {
    "Compound": "CCN(CCO)CCCOc1ccc2c(Nc3cc(CC(=O)Nc4cccc(F)c4)[nH]n3)ncnc2c1 [AZD2811] + O=C(c1cc(Cc2n[nH]c(=O)c3ccccc23)ccc1F)N1CCN(C(=O)C2CC2)CC1 [Olaparib] (first compound max 1 µM, 7x7, partner max 10 µM)",
    "Numeric Readout": 0.0395
  },
  {
    "Compound": "NC1(C(=O)N[C@@H](CCO)c2ccc(Cl)cc2)CCN(c2ncnc3[nH]ccc23)CC1 [Capivasertib] + CCN(CCO)CCCOc1ccc2c(Nc3cc(CC(=O)Nc4cccc(F)c4)[nH]n3)ncnc2c1 [AZD2811] (first compound max 10 µM, 7x7, partner max 1 µM)",
    "Numeric Readout": -0.0183
  },
  {
    "Compound": "CC(=O)c1c(C)c2cnc(Nc3ccc(N4CCNCC4)cn3)nc2n(C2CCCC2)c1=O [Palbociclib] + CN(CC[C@H](CSC1=CC=CC=C1)NC2=C(C=C(C=C2)S(=O)(=O)NC(=O)C3=CC=C(C=C3)N4CCC(CC4)[C@H](C5=CC=CC=C5C6=CC=C(C=C6)Cl)O)S(=O)(=O)C(F)(F)F)CCO [AZD4320] (first compound max 10 µM, 7x7, partner max 1 µM)",
    "Numeric Readout": -0.0494
  },
  {
    "Compound": "COc1cccc(OCCCN)c1-c1cc(Nc2cnc(C#N)cn2)n[nH]1 [Prexasertib] + CCc1c2c(nc3ccc(O)cc13)-c1cc3c(c(=O)n1C2)COC(=O)[C@]3(O)CC [SN-38] (first compound max 1 µM, 7x7, partner max 0.3 µM)",
    "Numeric Readout": 0.0103
  },
  {
    "Compound": "CN(CCO)CC[C@H](CSc1ccccc1)Nc1ccc(S(=O)(=O)NC(=O)c2ccc(N3CCC([C@@H](O)c4ccccc4-c4ccc(Cl)cc4)CC3)cc2)cc1S(=O)(=O)C(F)(F)F [AZD4320] + Cn1cnc2c(F)c(Nc3ccc(Br)cc3Cl)c(C(=O)NOCCO)cc21 [Selumetinib] (first compound max 1 µM, 7x7, partner max 3 µM)",
    "Numeric Readout": -0.0335
  }
]
